The values you see were collected from patent US20230167073A1.

Target: Human TRPC6 (Homo sapiens, UniProt Q9Y210)
Construct: expressed in transfected cells
Sequence (Q9Y210 1-931): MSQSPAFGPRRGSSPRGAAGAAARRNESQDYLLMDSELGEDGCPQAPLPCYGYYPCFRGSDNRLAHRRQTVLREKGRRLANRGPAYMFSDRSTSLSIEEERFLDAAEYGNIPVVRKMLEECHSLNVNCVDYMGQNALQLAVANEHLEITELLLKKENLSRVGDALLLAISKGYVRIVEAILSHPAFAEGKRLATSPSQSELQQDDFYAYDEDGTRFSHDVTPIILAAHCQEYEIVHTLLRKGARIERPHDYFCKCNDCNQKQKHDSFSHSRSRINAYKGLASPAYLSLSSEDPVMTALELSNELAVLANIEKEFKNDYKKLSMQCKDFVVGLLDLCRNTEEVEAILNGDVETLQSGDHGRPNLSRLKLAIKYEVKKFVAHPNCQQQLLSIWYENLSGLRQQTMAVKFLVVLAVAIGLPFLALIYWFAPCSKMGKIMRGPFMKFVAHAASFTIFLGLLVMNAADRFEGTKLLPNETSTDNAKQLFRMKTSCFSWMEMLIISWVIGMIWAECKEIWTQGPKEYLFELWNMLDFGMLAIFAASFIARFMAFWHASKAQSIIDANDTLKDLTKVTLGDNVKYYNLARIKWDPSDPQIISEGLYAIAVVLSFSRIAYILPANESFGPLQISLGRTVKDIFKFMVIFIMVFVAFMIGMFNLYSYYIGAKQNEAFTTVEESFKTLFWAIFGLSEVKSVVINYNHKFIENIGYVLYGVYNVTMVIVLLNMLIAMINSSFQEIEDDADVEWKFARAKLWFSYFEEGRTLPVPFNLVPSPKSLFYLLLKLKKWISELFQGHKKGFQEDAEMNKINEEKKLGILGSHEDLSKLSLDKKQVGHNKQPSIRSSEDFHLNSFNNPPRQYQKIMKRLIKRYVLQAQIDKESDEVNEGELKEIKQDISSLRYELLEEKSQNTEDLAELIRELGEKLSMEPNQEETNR
Experiment: Evaluation of TRPC6 channel inhibitory activity (1), FLIPR Calcium 5 Assay Kit, OAG stimulation (Compound Nos. 1-1293)
Assay type: cell-based
Conditions: Human TRPC6 stably-expressing cells, OAG 30 μM, FLIPR Calcium 5 Assay Kit; read-out: Inhibitory activity (pIC50 class) (converted)
# key: entry, value: IC50

# count of solved cases: 5
| compound | IC50 |
| --- | --- |
| Cn1nc(C2CC2)cc1Oc1cc(C#N)ccc1-c1ccc(C(O)CN)cc1 (centres unmarked) | < 10 nM |
| Cc1cc(Oc2cc(C#N)ccc2-c2ccc(C(N)CO)cn2)cc(N2CCOCC2)n1 (centres unmarked) | 10 to 1000 nM |
| N#Cc1ccc(-c2ccc(CCN)cc2)c(Oc2cnnc(N3CCOCC3)c2)c1 | < 10 nM |
| CCN(C)c1cc(Oc2cc(C#N)ccc2-c2ncc(CN)cn2)nc(C)n1 | 10 to 1000 nM |
| Cc1nc(Oc2cc(C#N)ccc2-n2cc([C@H](O)CN)cn2)cc(-c2ccccc2C#N)n1 | < 10 nM |

Entry Cn1nc(-c2ccccc2)cc1Oc1cc(C#N)ccc1-n1cc(N2CCNCC2=O)cn1 — recorded IC50 = > 1000 nM

Summary for this compound, N#Cc1ccc(-c2ncc(CN)cn2)c(C(=O)c2cnn(-c3ccccn3)c2)c1 : IC50 is 10 to 1000 nM

The reported value for N#Cc1ccc(-c2ncc(CCN)cn2)c(C(=O)c2cnn(CC3CC3)c2)c1 in terms of IC50 is < 10 nM

----------
Molecular target: Human TRPC6 (Homo sapiens)
Construct: expressed in transfected cells
Experiment: Evaluation of TRPC6 channel inhibitory activity (1), FLIPR Calcium 5 Assay Kit, OAG stimulation (Compound Nos. 1-1293)
Type: cell-based
Conditions: Human TRPC6 stably-expressing cells, OAG 30 μM, FLIPR Calcium 5 Assay Kit; read-out: Inhibitory activity (pIC50 class) (converted)
We begin with a simple list: items and their reported IC50.

Solved cases (5 shown):
| molecule | IC50 |
| --- | --- |
| NCCc1cnc(-c2ccc(F)cc2Oc2cnn(-c3ccccn3)c2)nc1 | 10 to 1000 nM |
| Cc1cc(Oc2cc(C#N)ccc2-c2ncc(CNC(C)(C)C)cn2)cc(N2CCOCC2)n1 | > 1000 nM |
| Cc1nc(Oc2cc(C#N)ccc2-c2ccc(C(=O)CN)cc2)cc(N2CCOCC2)n1 | > 1000 nM |
| Cc1nc(Oc2cc(C#N)ccc2-c2ccc(CN)cn2)cc(N(C)C)n1 | 10 to 1000 nM |
| Cc1cc(Oc2cc(C#N)ccc2-c2ncc(CNCC(N)=O)cn2)cc(-c2ccccn2)n1 | > 1000 nM |

Looking up N#Cc1ccc(-c2ncc(CCN)cn2)c(Sc2cnnc(N3CCOCC3)c2)c1 , I see its IC50 listed as 10 to 1000 nM

Reported IC50 of N#Cc1ccc(-c2ccc(CCN)cc2)c(Oc2cnnc(O[C@H]3CCC[C@H]3O)c2)c1 : 10 to 1000 nM

Summary for this molecule, Cc1nc(Oc2cc(C#N)ccc2-c2ncc(CN)cn2)cc(-c2ccccn2)n1 : IC50 is 10 to 1000 nM

What the record says about Cc1nc(Sc2cc(C#N)ccc2-c2ncc(CN)cn2)cc(N2CCCC2)n1 : IC50 is > 1000 nM

CCc1cc(Oc2cc(C#N)ccc2-c2ccc(CN)cn2)n(C)n1 has a reported IC50 of < 10 nM

----------
List of IC50 values.
Biological target: Human TRPC6 (Homo sapiens)
Construct: expressed in transfected cells
Test: Evaluation of TRPC6 channel inhibitory activity (1), FLIPR Calcium 5 Assay Kit, OAG stimulation (Compound Nos. 1-1293)
Format: cell-based
Conditions: Human TRPC6 stably-expressing cells, OAG 30 μM, FLIPR Calcium 5 Assay Kit; read-out: Inhibitory activity (pIC50 class) (converted)

| molecule | value-type | val |
| --- | --- | --- |
| N#Cc1ccc(-c2ccc(CCN)nc2)c(Oc2cnnc(N3CCOCC3)c2)c1 | IC50 | > 1 µM |

Lab note: molecule CC(C)c1cn(Cc2cc(C#N)ccc2-c2ncc(CN)cn2)nn1 tested on Human TRPC6 (Homo sapiens); recorded IC50 was 0.01 to 1 µM

Considering Cc1cc(Oc2cc(C#N)ccc2-c2ccn(CCN)c(=O)c2)cc(N2CCOCC2)n1 , its IC50 with Human TRPC6 (Homo sapiens) was recorded as 0.01 to 1 µM

For Cc1nc(Oc2cc(C#N)ccc2-c2ccc(C(CN)c3ccc(F)cc3)cc2)cc(N2CCOCC2)n1 (stereo not shown) on Human TRPC6 (Homo sapiens), measured IC50 was 0.01 to 1 µM

Item Cc1nc(NC(C)C)cc(Oc2cc(C#N)ccc2-c2ncc(CN)cn2)n1 was tested on Human TRPC6 (Homo sapiens); the reported IC50 is 0.01 to 1 µM

Hey, Human TRPC6 (Homo sapiens) data for Cn1nc(-c2ccccn2)cc1Cc1cc(C#N)ccc1-c1ccc(CCN)cn1 : IC50 came out at < 0.01 µM

----------
Quick reference for IC50 among some molecules
Biological target: Human TRPC6 (Homo sapiens, UniProt Q9Y210)
Construct: expressed in transfected cells
Experiment: Evaluation of TRPC6 channel inhibitory activity (1), FLIPR Calcium 5 Assay Kit, OAG stimulation (Compound Nos. 1-1293)
Format: cell-based
Conditions: Human TRPC6 stably-expressing cells, OAG 30 μM, FLIPR Calcium 5 Assay Kit; read-out: Inhibitory activity (pIC50 class) (converted)

Worked set:
| molecule | IC50 |
| --- | --- |
| Cc1nc(OCC2(C)CC2)cc(Oc2cc(C#N)ccc2-c2ccc(CCN)cc2)n1 | 10 to 1000 nM |
| CCc1cc(C(=O)c2cc(C#N)ccc2-c2ncc(CN)cn2)n(C)n1 | < 10 nM |
| Cc1nc(Oc2cc(F)ccc2-c2ncc(CCN)cn2)cc(N2CCOCC2)n1 | 10 to 1000 nM |

# context switch: different molecule, same IC50
# IC50 of Cn1nc(-c2ccccn2)cc1Oc1cc(C#N)ccc1-c1nc(Cl)c2c(n1)CCNC2 = > 1000 nM

----------
Target: Human TRPC6 (Homo sapiens)
Construct: expressed in transfected cells
Sequence (Q9Y210 1-931): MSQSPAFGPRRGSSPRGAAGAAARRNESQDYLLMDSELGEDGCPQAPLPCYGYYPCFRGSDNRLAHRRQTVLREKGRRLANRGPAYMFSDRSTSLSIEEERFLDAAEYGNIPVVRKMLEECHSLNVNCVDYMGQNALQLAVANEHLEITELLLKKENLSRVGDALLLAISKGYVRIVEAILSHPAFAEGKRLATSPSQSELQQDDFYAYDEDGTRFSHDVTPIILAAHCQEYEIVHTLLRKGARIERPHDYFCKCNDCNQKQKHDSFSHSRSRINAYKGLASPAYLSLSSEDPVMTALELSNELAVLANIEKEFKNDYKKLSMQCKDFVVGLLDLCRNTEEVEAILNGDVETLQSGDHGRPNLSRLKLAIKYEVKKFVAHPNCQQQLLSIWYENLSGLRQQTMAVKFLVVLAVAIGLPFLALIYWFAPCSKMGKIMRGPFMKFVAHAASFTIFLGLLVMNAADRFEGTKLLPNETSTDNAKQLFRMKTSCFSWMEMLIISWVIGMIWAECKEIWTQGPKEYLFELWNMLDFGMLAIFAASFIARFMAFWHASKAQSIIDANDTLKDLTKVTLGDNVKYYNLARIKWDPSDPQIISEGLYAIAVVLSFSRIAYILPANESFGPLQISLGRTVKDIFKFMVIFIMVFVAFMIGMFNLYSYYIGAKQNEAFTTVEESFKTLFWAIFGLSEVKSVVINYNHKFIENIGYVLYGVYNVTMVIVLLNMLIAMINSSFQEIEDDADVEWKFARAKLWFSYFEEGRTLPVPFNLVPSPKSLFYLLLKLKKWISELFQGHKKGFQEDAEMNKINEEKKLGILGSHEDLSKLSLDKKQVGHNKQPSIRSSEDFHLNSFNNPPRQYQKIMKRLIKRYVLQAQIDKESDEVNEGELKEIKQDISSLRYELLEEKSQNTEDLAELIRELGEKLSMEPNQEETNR
Experiment: Evaluation of TRPC6 channel inhibitory activity (1), FLIPR Calcium 5 Assay Kit, OAG stimulation (Compound Nos. 1-1293)
Assay type: cell-based
Settings: Human TRPC6 stably-expressing cells, OAG 30 μM, FLIPR Calcium 5 Assay Kit; read-out: Inhibitory activity (pIC50 class) (converted)
value-type: IC50

# example entries with known answers
| compound | IC50 |
| --- | --- |
| CCN(CC)c1cc(Oc2cc(C#N)ccc2-c2ncc([C@@H](F)CN)cn2)n(C)n1 | < 10 nM |
| Cc1nc(-c2cccc(F)c2)cn1Cc1cc(C#N)ccc1-c1ccc([C@H](O)CN)cn1 | 10 to 1000 nM |
| Cc1nn(-c2ccccn2)cc1Cc1cc(C#N)ccc1-c1ncc(CCN)cn1 | < 10 nM |
| N#Cc1ccc(-c2ncc(CCN)cn2)c(Sc2cnnc(N3CCCC3)c2)c1 | < 10 nM |
| Cn1nc(-c2ccc(F)cn2)cc1Oc1cc(C#N)ccc1-c1ncc(CN)cn1 | < 10 nM |

The value of IC50 recorded for N#Cc1ccc(-c2ccc(CCN)cc2)c(Sc2cnnc(N3CCCCC3)c2)c1 when tested on Human TRPC6 (Homo sapiens) reads < 10 nM

Sample Cc1nc(Oc2cc(C#N)ccc2-c2ccc(C(CN)c3cccc(F)c3)cc2)cc(N2CCOCC2)n1 (centres unmarked) , system: Human TRPC6 (Homo sapiens). Its IC50 is > 1000 nM

Recorded IC50 for Cc1nc(Oc2cc(C#N)ccc2-n2cc([C@@H](O)CNCC#N)cn2)cc(-c2ccccc2)n1 on Human TRPC6 (Homo sapiens) was > 1000 nM
